- Tested on: A549
- test_name: Induction of apoptosis in human A549 cells assessed as nuclear fragmentation after 24 hrs by DAPI staining-based fluorescence microscopic analysis
- Type: functional, cell-based
The source made the active and inactive calls. The rule behind the calls is not given here.
Please state which outcome applies, choosing from active, inactive

Q) Per the records of this test, what outcome belongs to "COc1ccc([C@H]2[C@@H](c3ccccc3)N[C@@]3(C(=O)Nc4ccccc43)[C@]23CCc2c([nH]c4ccc(C)cc24)C3=O)cc1" ?
A) inactive

Q) Recorded test call requested for "O=C1Nc2ccccc2[C@]12N[C@H](c1ccccc1)[C@H](c1ccccc1)[C@@]21CCc2c([nH]c3ccc(Cl)cc23)C1=O"
A) inactive

Q) Any idea what this test logged for "O=C1Nc2ccccc2[C@]12N[C@H](c1ccccc1)[C@H](c1ccccc1)[C@@]21CCc2c([nH]c3ccccc23)C1=O" ?
A) inactive

Q) For "Cc1ccc2[nH]c3c(c2c1)CC[C@]1(C3=O)[C@@H](c2cccs2)[C@@H](c2ccccc2)N[C@@]12C(=O)Nc1ccccc12" , which call appears in the assay record?
A) active

Q) Query: recorded result category for "O=C1Nc2ccccc2[C@]12N[C@H](c1ccccc1)[C@H](c1cccs1)[C@@]21CCc2c([nH]c3ccccc23)C1=O" in this test
A) inactive

Q) Hi, do you know how "O=C1Nc2ccccc2[C@]12N[C@H](c1ccccc1)[C@H](c1cccs1)[C@@]21CCc2c([nH]c3ccc(Cl)cc23)C1=O" came out in this test?
A) active

Q) In this assay, the call recorded for "Cc1ccc2[nH]c3c(c2c1)CC[C@]1(C3=O)[C@@H](c2ccccc2)[C@@H](c2ccccc2)N[C@@]12C(=O)Nc1ccccc12" was what?
A) inactive

Q) Given "COc1ccc([C@H]2[C@@H](c3ccccc3)N[C@@]3(C(=O)Nc4ccccc43)[C@]23CCc2c([nH]c4ccc(Cl)cc24)C3=O)cc1" , state the outcome it received in this test.
A) inactive

----------
- Test system: MCF7
- test_name: Induction of apoptosis in human MCF7 cells assessed as formation of floating cells after 24 hrs by brightfield inverted light microscopic analysis
- Assay type: functional, cell-based
Calls of active or inactive are those of the source. The calls are words filed in the database; no cut-off is given here.
property_name: Activity

INSERT INTO assay_data (item_smiles, result) VALUES
  ('COc1ccc([C@H]2[C@@H](c3ccccc3)N[C@@]3(C(=O)Nc4ccccc43)[C@]23CCc2c([nH]c4ccc(Cl)cc24)C3=O)cc1', 'inactive'),
  ('O=C1Nc2ccccc2[C@]12N[C@H](c1ccccc1)[C@H](c1cccs1)[C@@]21CCc2c([nH]c3ccc(Cl)cc23)C1=O', 'Dose-dependent effect'),
  ('O=C1Nc2ccccc2[C@]12N[C@H](c1ccccc1)[C@H](c1ccccc1)[C@@]21CCc2c([nH]c3ccc(Cl)cc23)C1=O', 'inactive'),
  ('Cc1ccc2[nH]c3c(c2c1)CC[C@]1(C3=O)[C@@H](c2cccs2)[C@@H](c2ccccc2)N[C@@]12C(=O)Nc1ccccc12', 'Dose-dependent effect'),
  ('O=C1Nc2ccccc2[C@]12N[C@H](c1ccccc1)[C@H](c1ccccc1)[C@@]21CCc2c([nH]c3ccccc23)C1=O', 'inactive'),
  ('COc1ccc([C@H]2[C@@H](c3ccccc3)N[C@@]3(C(=O)Nc4ccccc43)[C@]23CCc2c([nH]c4ccc(C)cc24)C3=O)cc1', 'inactive'),
  ('Cc1ccc2[nH]c3c(c2c1)CC[C@]1(C3=O)[C@@H](c2ccccc2)[C@@H](c2ccccc2)N[C@@]12C(=O)Nc1ccccc12', 'inactive');

Please turn your attention to the following entry.
Q) # input compound: "O=C1Nc2ccccc2[C@]12N[C@H](c1ccccc1)[C@H](c1cccs1)[C@@]21CCc2c([nH]c3ccccc23)C1=O" ; wanted: its Activity
A) inactive
